Taken from ChEMBL document CHEMBL2073879.

Each entry below lists one item and its recorded Activity value.
Target: Monocarboxylate transporter 2 (Homo sapiens) (UniProt O60669)
Sequence (O60669 whole entry): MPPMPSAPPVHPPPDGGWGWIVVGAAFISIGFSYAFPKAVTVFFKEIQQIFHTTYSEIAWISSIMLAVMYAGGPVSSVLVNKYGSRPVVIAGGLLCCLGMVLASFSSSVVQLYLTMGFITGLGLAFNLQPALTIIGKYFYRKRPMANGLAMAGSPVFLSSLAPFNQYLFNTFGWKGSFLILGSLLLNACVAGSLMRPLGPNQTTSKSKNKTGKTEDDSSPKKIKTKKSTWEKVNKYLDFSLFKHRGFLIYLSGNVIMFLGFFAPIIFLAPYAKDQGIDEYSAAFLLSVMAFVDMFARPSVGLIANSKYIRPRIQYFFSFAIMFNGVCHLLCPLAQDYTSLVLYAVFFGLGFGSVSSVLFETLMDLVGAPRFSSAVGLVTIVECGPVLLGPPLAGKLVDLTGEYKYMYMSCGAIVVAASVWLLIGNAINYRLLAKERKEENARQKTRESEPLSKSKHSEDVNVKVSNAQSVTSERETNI
Experiment: TP_TRANSPORTER: inhibition of pyruvate uptake in Xenopus laevis oocytes
Format: functional, cell-based
Set-up: concentration or dose not given beside the values
Conditions: Oocyte

[[record]]
compound = "C[C@@H](O)C(=O)O"
target_or_system = "Monocarboxylate transporter 2 (Homo sapiens) (UniProt O60669)"
measure = "Activity"
reported_result = "10%"

[[record]]
compound = "CC(O)CC(=O)O (racemic)"
target_or_system = "Monocarboxylate transporter 2 (Homo sapiens) (UniProt O60669)"
measure = "Activity"
reported_result = "30%"

[[record]]
compound = "O=C(O)/C=C/c1cccc(O)c1"
target_or_system = "Monocarboxylate transporter 2 (Homo sapiens) (UniProt O60669)"
measure = "Activity"
reported_result = "30%"

[[record]]
compound = "CCOC(=O)/C=C/c1ccc(O)cc1"
target_or_system = "Monocarboxylate transporter 2 (Homo sapiens) (UniProt O60669)"
measure = "Activity"
reported_result = "65%"

[[record]]
compound = "CCC(O)C(=O)O (racemic)"
target_or_system = "Monocarboxylate transporter 2 (Homo sapiens) (UniProt O60669)"
measure = "Activity"
reported_result = "10%"


query: Bench note: what Activity did O=C(O)CCCO show?
result: 10%

query: Bench note: what Activity did CC(O)C(=O)[O-].[Na+] (stereo not drawn) show?
result: 0%

* * *

Each entry below lists one item and its recorded Activity value.
Biological target: Monocarboxylate transporter 1 (Rattus norvegicus) (UniProt P53987)
Sequence (P53987 whole entry): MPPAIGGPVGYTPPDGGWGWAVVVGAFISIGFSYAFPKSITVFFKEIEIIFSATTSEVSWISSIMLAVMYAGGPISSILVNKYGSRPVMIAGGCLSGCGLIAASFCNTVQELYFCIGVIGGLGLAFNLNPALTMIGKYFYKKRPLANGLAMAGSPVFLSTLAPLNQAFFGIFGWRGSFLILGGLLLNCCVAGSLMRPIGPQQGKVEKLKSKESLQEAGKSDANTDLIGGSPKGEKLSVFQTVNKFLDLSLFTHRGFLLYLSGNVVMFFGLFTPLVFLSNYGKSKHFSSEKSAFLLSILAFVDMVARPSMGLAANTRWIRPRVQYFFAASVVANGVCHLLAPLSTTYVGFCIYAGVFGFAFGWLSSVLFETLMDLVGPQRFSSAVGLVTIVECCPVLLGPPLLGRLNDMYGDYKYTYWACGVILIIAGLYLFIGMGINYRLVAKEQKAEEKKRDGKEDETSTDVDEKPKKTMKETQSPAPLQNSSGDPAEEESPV
Test: TP_TRANSPORTER: inhibition of pyruvate uptake in Xenopus laevis oocytes
Type: functional, cell-based
Design: concentration or dose not given beside the values
Settings: Oocyte

[[record]]
compound = "CCC(O)C(=O)O (racemic)"
target_or_system = "Monocarboxylate transporter 1 (Rattus norvegicus) (UniProt P53987)"
reported_result = "40%"

[[record]]
compound = "CC(O)CC(=O)O (racemic)"
target_or_system = "Monocarboxylate transporter 1 (Rattus norvegicus) (UniProt P53987)"
reported_result = "20%"

[[record]]
compound = "O=C(O)CCCO"
target_or_system = "Monocarboxylate transporter 1 (Rattus norvegicus) (UniProt P53987)"
reported_result = "40%"


query: Bench note: what Activity did CC(O)C(=O)[O-].[Na+] (stereo not drawn) show?
result: 0%

query: Bench note: what Activity did C[C@@H](O)C(=O)O show?
result: 30%

query: Bench note: what Activity did CCOC(=O)/C=C/c1ccc(O)cc1 show?
result: 0%

query: Bench note: what Activity did O=C(O)/C=C/c1cccc(O)c1 show?
result: 20%
